assay.notes: pharmacokinetic study in mice, plasma and brain concentrations by LC-MS/MS
Type: in vivo, nude mice
run.parameters: nude, mouse, brain and plasma, single PO 6 mg/kg, between 1 and 6 hours after treatment, read-out: brain-to-plasma ratio of total concentrations
attribute.measured: Kp at 6 h

Identify measured Kp at 6 h corresponding to CC(=O)N1CCN(c2nc3c(N4CCOCC4)nc(-c4cnc(N)nc4)nc3n2CC(F)(F)F)C[C@H]1C
~0.1

* * *

experimental.target: p110β (Homo sapiens)
Sequence (P42338 whole entry): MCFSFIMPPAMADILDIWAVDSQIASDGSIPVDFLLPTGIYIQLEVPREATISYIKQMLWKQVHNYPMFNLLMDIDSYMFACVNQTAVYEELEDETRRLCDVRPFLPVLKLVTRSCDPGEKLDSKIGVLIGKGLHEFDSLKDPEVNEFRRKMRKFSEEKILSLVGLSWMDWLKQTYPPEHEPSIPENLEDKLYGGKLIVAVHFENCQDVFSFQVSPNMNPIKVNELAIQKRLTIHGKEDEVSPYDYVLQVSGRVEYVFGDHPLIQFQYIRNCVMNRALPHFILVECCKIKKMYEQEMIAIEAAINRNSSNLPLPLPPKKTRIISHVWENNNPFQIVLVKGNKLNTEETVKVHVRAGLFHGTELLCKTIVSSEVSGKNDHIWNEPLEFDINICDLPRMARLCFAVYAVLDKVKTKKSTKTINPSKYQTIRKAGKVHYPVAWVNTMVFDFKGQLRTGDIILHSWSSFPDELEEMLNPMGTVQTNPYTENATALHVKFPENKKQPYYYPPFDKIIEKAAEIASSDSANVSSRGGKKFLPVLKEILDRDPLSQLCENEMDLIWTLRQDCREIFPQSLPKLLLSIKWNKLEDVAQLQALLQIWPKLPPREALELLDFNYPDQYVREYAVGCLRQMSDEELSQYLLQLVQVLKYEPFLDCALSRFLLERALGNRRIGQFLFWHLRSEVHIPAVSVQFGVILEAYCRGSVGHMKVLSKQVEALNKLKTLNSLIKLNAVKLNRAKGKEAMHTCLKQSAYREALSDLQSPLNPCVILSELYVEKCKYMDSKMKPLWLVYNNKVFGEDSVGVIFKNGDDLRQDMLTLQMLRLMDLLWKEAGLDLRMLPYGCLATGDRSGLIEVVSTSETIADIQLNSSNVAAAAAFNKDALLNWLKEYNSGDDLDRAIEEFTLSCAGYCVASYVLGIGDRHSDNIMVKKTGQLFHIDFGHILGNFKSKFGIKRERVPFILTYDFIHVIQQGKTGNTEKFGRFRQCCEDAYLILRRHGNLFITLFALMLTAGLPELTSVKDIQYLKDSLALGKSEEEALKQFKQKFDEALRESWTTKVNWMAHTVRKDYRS
Sequence (P27986 whole entry partner): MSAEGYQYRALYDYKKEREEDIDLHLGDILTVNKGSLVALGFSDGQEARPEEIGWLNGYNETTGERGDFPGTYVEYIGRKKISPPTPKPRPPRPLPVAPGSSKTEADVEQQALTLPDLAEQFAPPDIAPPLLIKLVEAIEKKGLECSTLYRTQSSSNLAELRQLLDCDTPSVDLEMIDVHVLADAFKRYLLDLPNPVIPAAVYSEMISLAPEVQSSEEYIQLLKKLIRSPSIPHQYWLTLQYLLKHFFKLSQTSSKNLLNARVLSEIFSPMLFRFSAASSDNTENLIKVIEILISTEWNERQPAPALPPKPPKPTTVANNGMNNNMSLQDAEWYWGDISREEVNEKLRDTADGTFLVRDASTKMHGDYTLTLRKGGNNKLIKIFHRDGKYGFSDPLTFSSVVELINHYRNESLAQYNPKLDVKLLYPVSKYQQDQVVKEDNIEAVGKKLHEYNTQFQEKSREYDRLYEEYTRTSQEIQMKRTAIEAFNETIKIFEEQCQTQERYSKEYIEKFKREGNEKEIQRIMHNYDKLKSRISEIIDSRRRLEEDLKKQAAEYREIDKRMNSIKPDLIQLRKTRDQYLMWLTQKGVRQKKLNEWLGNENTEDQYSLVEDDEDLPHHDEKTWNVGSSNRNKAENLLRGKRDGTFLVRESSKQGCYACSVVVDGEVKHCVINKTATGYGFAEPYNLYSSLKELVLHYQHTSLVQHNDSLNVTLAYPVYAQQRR
attribute.measured: pIC50
Bear in mind: pIC50 is minus log10 of a mol/L concentration; give just that figure.

Fill: pIC50 (p110β (Homo sapiens)) for this compound CC(=O)N1CCN(c2nc3c(N4CCOCC4)nc(-c4cnc(N)nc4)nc3n2CC(F)(F)F)C[C@H]1C
5.94
